Reference for the values: PubChem BioAssay (NCI)

Listed here: items and their measured growth.
# Tested on: HCT-116 colon
# measurement.protocol: NCI-60 one-dose screen, 48 h (100 = growth as untreated, 0 = no growth, -100 = all killed)
# condition.set: 10 µM unless noted
Compounds without any hit were thinned out: in the full panel of roughly 83,000, 20% have a hit.
reported.endpoint: growth (%)

{"compound": "C=C1C(=O)O[C@H]2[C@H]1CC/C(CNC(=O)c1cccc3ccccc13)=C\\CC[C@@]1(C)O[C@@H]21", "reported.endpoint": "growth", "value": -21.6}
{"compound": "CN1CCN(C(=O)[C@]23CCC(C)(C)C[C@H]2C2=CC[C@@H]4[C@@]5(C)C/C(=C/c6cccnc6)C(=O)C(C)(C)[C@@H]5CC[C@@]4(C)[C@]2(C)CC3)CC1", "reported.endpoint": "growth", "value": 20}
{"compound": "COc1cc(-c2cc(-c3ccc(N(C)C)cc3)nc(N3CCOCC3)c2C#N)cc(OC)c1OC", "reported.endpoint": "growth", "value": 12.3}
{"compound": "NNC(=O)c1ccc(-n2nc(-c3ccccc3)c3ccccc32)cc1", "reported.endpoint": "growth", "value": 82.2}
{"compound": "CCNc1nc2cc(Nc3ccnc4cc(Cl)ccc34)ccc2o1", "reported.endpoint": "growth", "value": 42.3}
{"compound": "Cc1ccc(-c2csc(NC(=O)CSc3nc(-c4ccccc4)cc(=O)[nH]3)n2)cc1", "reported.endpoint": "growth", "value": 98.5}
{"compound": "Cc1cc2nc3c4cc(C=O)ccc4n(CCN(C)C)c3nc2cc1C", "reported.endpoint": "growth", "value": 10.2}
{"compound": "O=S(=O)(NCCNc1nccc(-c2c(-c3cccc(O)c3)nc3occn23)n1)c1ccc(Cl)cc1", "reported.endpoint": "growth", "value": 87.6}
{"compound": "CCCCCCNC(=O)Oc1ccc(/C(=C(\\C)c2ccccc2)c2ccc(OCCN3CCCCC3)cc2)cc1", "reported.endpoint": "growth", "value": 33.9}
{"compound": "CCCCCN1C=C/C(=C\\C(=O)N(C)c2ccccc2Br)c2ccccc21", "reported.endpoint": "growth", "value": 87.2}
{"compound": "O=C1NN(C(=O)c2ccccc2)C(c2ccc(Cl)c(Cl)c2)=C/C1=C\\c1ccc([N+](=O)[O-])cc1", "reported.endpoint": "growth", "value": 90.7}
{"compound": "C=C1C(=O)O[C@H]2[C@H]1CC/C(COC(=O)NCCc1c[nH]c3ccc(OC)cc13)=C\\CC[C@@]1(C)O[C@@H]21", "reported.endpoint": "growth", "value": -82.5}
{"compound": "O=[N+]([O-])c1cc(Br)c2cccc3c2c1CC3", "reported.endpoint": "growth", "value": 106}
{"compound": "COc1cc(CC(=O)n2ncc3ccc(N)cc32)cc(OC)c1OC", "reported.endpoint": "growth", "value": 97.3}
{"compound": "COc1ccc2nc(-c3ccc(-c4noc(-c5cc(OC)c(OC)c(OC)c5)n4)cc3)[nH]c2c1", "reported.endpoint": "growth", "value": 33}
{"compound": "Oc1ccc(C2c3ccccc3Oc3ccccc32)c2cccnc12", "reported.endpoint": "growth", "value": 20.1}
{"compound": "N#CC(C#N)=Cc1cc2ccccc2nc1Oc1ccc(C(F)(F)F)cc1", "reported.endpoint": "growth", "value": 89.8}
{"compound": "O=C(Cn1c(C(=O)c2ccccc2)nc2ccccc21)c1ccc(F)cc1", "reported.endpoint": "growth", "value": 39.2}
{"compound": "CCc1ccc(-c2cn3ccnc3c(-c3ccc4ncn(Cc5ccccc5)c4c3)n2)cc1", "reported.endpoint": "growth", "value": 38.8}
{"compound": "CC(Sc1nc2ccccc2c(=O)n1CCc1ccc(S(N)(=O)=O)cc1)C(=O)Nc1ccc(Cl)cc1 (configuration not stated)", "reported.endpoint": "growth", "value": 79.9}
{"compound": "COc1cc2c3c(c4c5ccccc5[nH]c4c2c(OC)c1OC)C(=O)N(CCN1CCOCC1)C3=O", "reported.endpoint": "growth", "value": 19.7}
{"compound": "O=C(/C(=C\\c1ccc([N+](=O)[O-])cc1)S(=O)Cc1ccc(F)cc1)c1ccc(F)cc1 (configuration not stated)", "reported.endpoint": "growth", "value": -20.5}
{"compound": "COc1ccc(OC)c(-c2cc(-c3ccc(Cl)cc3)c3c(N)c(C(=O)c4ccc(Cl)cc4)sc3n2)c1", "reported.endpoint": "growth", "value": 95.7}
{"compound": "O=C1Nc2ccccc2/C1=C\\c1c(-c2ccccc2)nc2ccccn12", "reported.endpoint": "growth", "value": 20.6}
{"compound": "CC1(C)CC[C@]23CC[C@]4(C)[C@H](CC[C@@H]5[C@@]6(C)CCCNC(C)(C)[C@@H]6CC[C@]54C)[C@H]2[C@H]1OC3", "reported.endpoint": "growth", "value": -99.4}
{"compound": "ClC1=C(Br)C(Br)(Br)C(=C(Br)Br)C1(Br)Br", "reported.endpoint": "growth", "value": 79.9}
{"compound": "O=C(/C=C(O)/C=C/c1ccc(SC(F)(F)F)cc1)/C=C/c1ccc(SC(F)(F)F)cc1", "reported.endpoint": "growth", "value": 17.7}
{"compound": "O=C1/C=C/[C@@H](O)[C@@H]2C[C@@H](O)C[C@H]2/C=C/CCC[C@H](CCc2cccc3ccccc23)O1", "reported.endpoint": "growth", "value": -63.9}
{"compound": "COc1cc2oc(-c3cccc(C(=O)Nc4ccc5c(c4)OCO5)c3)cc(=O)c2c(O)c1OC", "reported.endpoint": "growth", "value": 57}
{"compound": "CCN(CC)c1ccc(C(=O)c2ccccc2)cc1", "reported.endpoint": "growth", "value": 91.3}
{"compound": "COc1cc(C2C3CC4CCCC[C@H]4N3[C@@]3(C(=O)Nc4cc(Cl)ccc43)C2C(=O)c2nc3ccccc3[nH]2)cc(OC)c1OC (some centres not stated)", "reported.endpoint": "growth", "value": 34.7}
{"compound": "O=C1Nc2cc(-c3cccc(O)c3)ccc2/C1=C/c1ccc[nH]1", "reported.endpoint": "growth", "value": 11.6}
{"compound": "Cc1cnc(C(=O)Nc2nc3ccc(S(=O)(=O)Nc4ccc(C(C)(C)C)cc4)cc3[nH]2)cn1", "reported.endpoint": "growth", "value": 14.2}
{"compound": "CC(=O)[C@H]1CCC/C=C/[C@@H]2C[C@H](O)C[C@H]2[C@H](O)/C=C/C(=O)O1", "reported.endpoint": "growth", "value": -45.1}
{"compound": "O=C(Nc1ccccc1C(=O)N/N=C(\\c1ccccc1)c1ccccn1)c1ccc(F)cc1", "reported.endpoint": "growth", "value": 17}
{"compound": "CCOC(=O)C1=C(C)NC(SCc2cc(=O)oc3ccc(F)cc23)=N[C@@H]1c1cccc2ccccc12", "reported.endpoint": "growth", "value": 76.9}
{"compound": "Cc1ccc(NC(=O)Cc2ccc(/C=C/C(=O)c3ncc[nH]3)cc2)cc1", "reported.endpoint": "growth", "value": 8.97}
